Assay: MRP1 drug-resistance reversers in H69AR cells – cell-based, doxorubicin co-treatment, pilot screen (AID 601)
Details: H69AR cells + 2 uM doxorubicin, CellTiter-Glo, 72 h; at 10 µM; stronger effect = higher value
The source made the active and inactive calls.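 Rule for the calls: active = viability loss from added drug above about 55%, and viability with drug at most 40%, in both replicates (limit read from the data, passing the limit was not always enough); inconclusive = both conditions met in only one replicate; inactive = neither replicate meets both conditions.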
Let's look at some compounds and their measured differential viability (reversal).

Field: example entries. Status: answers known.
INSERT INTO measurements (compound, endpoint_value) VALUES
  ('O=C(O)COc1ccc(S(=O)(=O)NCCc2ccccc2)cc1', '27.5% (inactive)'),
  ('CCOC(=O)C1=C(C)N(C)C(=O)NC1c1cccc(O)c1 (stereo not drawn)', '-13.7% (inactive)');

Proceed to the following item.
input: For "Cc1ccc(C)c(S(=O)(=O)n2cnc3ccccc32)c1" , what is its reported differential viability (reversal)?
output: 7.94% (inactive)

###

Test: H69AR cell proliferation blockers – human, duplicate replicates, primary screen (AID 580);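 note: 100% = mean luminescence of untreated wells and 0% = no signal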
Settings: H69AR lung tumor cells viability, ATP luminescence, 72 h; at 10 µM; stronger effect = lower value
Activity calls are given as the source filed them.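 Rule for the calls: active = viability at or under a set limit in both replicates, limit being median viability minus 3 SD (cut at about 48% in these data, passing the limit was not always enough); inconclusive = at or under the limit in just one replicate; inactive = at or above the limit in both replicates.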
Let's look at some molecules and their measured viability.

Field: example entries. Status: answers known.
INSERT INTO measurements (molecule, endpoint_value) VALUES
  ('O=c1[nH]c2ccc(Br)cc2c(-c2ccccc2)c1N1CCOCC1', '75.7% (inactive)'),
  ('Cc1cccc(-n2ncc3c(NCCCn4ccnc4)ncnc32)c1', '88.6% (inactive)'),
  ('N#Cc1cc2c(nc1SCC(=O)N1CCCCC1)CCCC2', '87.6% (inactive)');

input: For "C=C(Cl)COc1ccc2c(C)cc(=O)oc2c1" , what is its reported viability?
output: 101% (inactive)

input: For "CC1(C)Cc2ccccc2C(N)=C1C#N" , what is its reported viability?
output: 93.7% (inactive)

input: For CCn1c(SCC(=O)Nc2cc(C)ccc2C)nc2c(c1=O)SC(C)C2 (centres undefined) , what is its reported viability?
output: 83.1% (inactive)

input: For "CCn1c(-c2cc(Br)ccc2O)n[nH]c1=S" , what is its reported viability?
output: 98% (inactive)

input: For CC1CCCN(C(=O)c2cc3c(-c4ccc(Cl)cc4)nn(C)c3s2)C1 (centres undefined) , what is its reported viability?
output: 92.5% (inactive)

input: For "Cc1ccc(SCC(=O)NCCN2C(=O)CSC2=O)c(C)c1" , what is its reported viability?
output: 87.7% (inactive)

###

Let's look at some compounds and their measured Her2 level.
Target: Receptor tyrosine-protein kinase erbB-2 (Homo sapiens)
Test: Her2 expression decrease, cell viability multiplex – SKBR3 breast tumor cells, AlphaScreen, ATP viability, primary screen (AID 461);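 note: lower value means less Her2 protein in the cells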
Details: 18-24 h, at 10 µM, stronger effect = lower value
Just the number in %, nothing appended.

Field: example entries. Status: answers known.
INSERT INTO assay_data (compound, scale_unit, endpoint_value) VALUES
  ('CCCCN(C)C(=O)c1ccc(CS(=O)(=O)c2ccccc2C)o1', '%', 86.5),
  ('O=C(c1ccc(CSCc2ccccc2F)o1)N1CCN(c2ccc(N3CCOCC3)nn2)CC1', '%', 76),
  ('CCOC(=O)c1ccc2ncc(C(=O)OCC)c(NCCN(C)C)c2c1', '%', 99.5),
  ('O=C1CCCC2=C1C(c1cccc(Br)c1)n1nc(-c3ccco3)nc1N2 (stereo not given)', '%', 73);

Proceed to the following item.
input: For "COCc1nnc(NC(=O)c2ccc(S(=O)(=O)N(C)c3ccccc3)cc2)o1" , what is its reported Her2 level?
output: 107

###

Experiment: MRP1 drug-resistance reversers in H69AR cells – cell-based, doxorubicin co-treatment, pilot screen (AID 601)
Conditions: H69AR cells, CellTiter-Glo, 72 h; compound alone cytotoxicity; at 10 µM
Let's look at some compounds and their measured viability.

Field: example entries. Status: answers known.
INSERT INTO results (compound, endpoint_value) VALUES
  ('CCOc1ccc(CCN2C(=O)C3C4C=CC(C4)C3C2=O)cc1OCC (stereo not given)', '87.9%'),
  ('CC(=O)OC1c2ccccc2C(=O)N1Cc1ccccc1Cl (stereo not given)', '88.5%'),
  ('CC(C)c1ncc(C(O)c2cccc3ccccc23)n1C (stereo not given)', '87.5%'),
  ('CCCNc1nc(N2CCOCC2)nc(N2CCOCC2)n1', '90.5%');

input: For "N#Cc1ccc(-c2csc(NC(=O)C3CC3)n2)cc1" , what is its reported viability?
output: 91.9%

###

Experiment: yeast transport mutant growth inhibition pilot in 384-well plates, post-Golgi transport modulator project (AID 636)
Conditions: absorbance 615 nm, about 18 h, stronger effect = higher value
TEST READOUT: inhibition (%)
Just the number in %, nothing appended.

Field: example entries. Status: answers known.
INSERT INTO measurements (compound, test_readout, endpoint_value) VALUES
  ('CCCC(=O)C1=C(N(C)c2ccccc2)CC(C)(C)C(C(=O)OC)C1=O (stereo not given)', 'inhibition', -2.47),
  ('Cc1c(NC(=O)C2CCCCN2S(=O)(=O)c2ccc(Cl)cc2)c(=O)n(-c2ccccc2)n1C (stereo not given)', 'inhibition', -3.47),
  ('Cc1noc(C)c1S(=O)(=O)N1CCN(Cc2ccc3c(c2)OCO3)CC1', 'inhibition', -0.93),
  ('Cc1cc(N2CCOCC2)nc2ccc(NC(=O)C3CCC(C)CC3)cc12 (stereo not given)', 'inhibition', -0.27),
  ('CSc1cccc(NS(=O)(=O)c2ccccc2)c1', 'inhibition', -0.9);

input: For "O=C(Cn1cc2c(n1)CCCCC2)N1CCc2ccccc21" , what is its reported inhibition?
output: -1.33

input: For "CCCCN(CC)CCCNC(=O)c1cc2c(=O)n(C)c3ccccc3c2n1C" , what is its reported inhibition?
output: -2.05

###

Let's look at some compounds and their measured viability.
Test: viability of HCT116 without oncogenic beta-catenin – human colon tumor cells, pilot screen (AID 823);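 note: 0% = wells killed by 20 µM Hyamine and 100% = untreated DMSO cell wells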
Conditions: HCT116 beta-catenin knockout viability, CellTiter-Glo, 60 h; at 10 µM; stronger effect = lower value
Inconclusive results are not listed.
Just the number in %, nothing appended.

INSERT INTO results (compound, test_readout, scale_unit, endpoint_value) VALUES
  ('Cc1ccc(CSc2nc3c(c(=O)[nH]2)CCC3)cc1', 'viability', '%', 105);

input: For CN1CCc2c(sc3c2C(=O)NC(c2cccc(OC(=O)c4cccs4)c2)N3)C1 (stereo unspecified) , what is its reported viability?
output: 96.3

input: For "CN(C)c1ccc(S(=O)(=O)c2ccc(Cl)cc2)cc1" , what is its reported viability?
output: 103

input: For "COc1ccc(OC)c(CNC(=O)CCc2nc(-c3cccs3)no2)c1" , what is its reported viability?
output: 98

input: For "Nc1nc(SCC(=O)OCc2ccccc2)[nH]c(=O)c1NC(=O)c1ccco1" , what is its reported viability?
output: 101

input: For "Cc1ccc(-n2ncc3c(=O)n(CC(=O)NCc4ccco4)cnc32)cc1C" , what is its reported viability?
output: 74.4

###

Experiment: yeast transport mutant growth inhibition pilot in 384-well plates, post-Golgi transport modulator project (AID 636)
Details: absorbance 615 nm, about 18 h, stronger effect = higher value
TEST READOUT: inhibition (%)
Just the number in %, nothing appended.

INSERT INTO measurements (molecule, endpoint_value) VALUES
  ('CCOc1cccc(OCCCCn2ccnc2)c1', 3.92),
  ('CN(C)CCCN1C(=O)CSC1c1ccccc1 (stereo unspecified)', -4.67),
  ('CC1CCc2nn(CC(=O)NCCN3CCCCC3C)cc2C1 (stereo unspecified)', -2.18),
  ('Cc1occc1C(=O)N1CCN(Cc2ccccc2)CC1', 0.26);

Proceed to the following item.
input: For "O=C(O)c1ccc(-c2ccc(O)c(F)c2)cc1" , what is its reported inhibition?
output: -0.4

###

Experiment: HUVEC growth inhibition – cell-based, human, primary screen (AID 575);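 note: 100% = median of untreated cell wells with 0.1% DMSO on each plate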
Details: HUVEC proliferation, CellTiter-Glo luminescence, 72 h; at 10 µM; stronger effect = lower value
TEST READOUT: viability (%)
Just the number in %, nothing appended.

Field: example entries. Status: answers known.
INSERT INTO results (compound, endpoint_value) VALUES
  ('CCCNC(=O)CS(=O)(=O)Cc1nc(-c2cccc(OC)c2)oc1C', 109),
  ('COc1cccc(CNC(=O)CCS(=O)(=O)c2cccc3nsnc23)c1', 105),
  ('COc1ccc(-c2nnc3sc(C(C)N4C(=O)c5ccccc5C4=O)nn23)cc1 (centres undefined)', 96.8);

Proceed to the following item.
input: For "Cc1cc(NS(=O)(=O)c2ccccc2)no1" , what is its reported viability?
output: 94.5

###

Experiment: reduced viability of SK-BR-3 breast cancer cells – cell-based, 24 h, human, pilot screen (AID 572);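 note: compound exposure lasted between 18 and 24 h rather than exactly 24 h; 100% = carrier-treated control wells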
Conditions: SK-BR-3 viability, CellTiter-Glo luminescence, at 10 µM, stronger effect = lower value
TEST READOUT: viability (%)
Just the number in %, nothing appended.

Field: example entries. Status: answers known.
INSERT INTO results (compound, test_readout, endpoint_value) VALUES
  ('CCC(C)NC(=O)CS(=O)(=O)Cc1nc(-c2cccc(OC)c2)oc1C (centres undefined)', 'viability', 80.5),
  ('CC(=O)c1cccc(NC(=O)CCOc2ccccc2)c1', 'viability', 96);

input: For CCCCCOc1ccc(C2NC(=O)NC2=O)cc1 (centres undefined) , what is its reported viability?
output: 97

input: For CNC(=O)C1C2C=CC3(O2)C1C(=O)N(C1CC1)C3C(=O)NCc1ccc(OC)cc1 (centres undefined) , what is its reported viability?
output: 99.5

input: For "Cc1ccc(-c2cc(C(=O)Nc3cc(C)on3)c3ccccc3n2)c(C)c1" , what is its reported viability?
output: 77.5

input: For CCOCCCNC(=O)C(NC(=O)c1ccccn1)c1ccc(C)cc1 (centres undefined) , what is its reported viability?
output: 94.5

input: For CCOc1ccc(C2CC(c3ccccc3C)n3nc(N)nc3N2)cc1 (centres undefined) , what is its reported viability?
output: 87.5

input: For "Cc1nc(NCc2ccc3c(c2)OCO3)c2oc3ccccc3c2n1" , what is its reported viability?
output: 99

Provenance of the data: PubChem BioAssay
